The values you see were collected from patent US20040157845A1.

For each record, write down the corresponding melting point.

Lab book: melting point of `O=C(Nc1ccc(C(F)(F)C(F)(F)F)cc1)c1csc(Cc2c(Cl)cccc2Cl)n1` noted as 95 to 96.4 °C

Item: `O=C(Nc1ccc(C(F)(F)F)cc1)c1coc(Cc2c(Cl)cccc2Cl)n1` | melting point: 182 to 184 °C

response.value for `O=C(Nc1ccc(Br)cc1)c1csc(Nc2ccccc2C(F)(F)F)n1` (field: melting point) = 151 to 153 °C

Reported melting point for `CC(C)c1ccc(NC(=O)c2csc(Nc3c(Cl)cccc3C(F)(F)F)n2)cc1` was 216 to 218 °C

The compound identified as `O=C(Nc1ccc(Br)cc1)c1csc(Nc2c(Cl)cncc2Cl)n1` registered its melting point at 194.9 to 196.6 °C

The compound listed as `O=C(Nc1ccc(Br)cc1)c1coc(Cc2c(Cl)cccc2Cl)n1` has a reported melting point of 164 to 165 °C

For reference, reported melting point for `O=C(Nc1ccc(C(F)(F)F)cc1)c1csc(Nc2c(Cl)cccc2Cl)n1` stands at 199 to 200 °C

get_value(item= `CC(C)(C)c1ccc(NC(=O)c2csc(Cc3c(Cl)cccc3Cl)n2)cc1` , readout=melting point) returns 139 to 141 °C

Sure, the documented melting point for `O=C(Nc1ccc(C(F)(F)F)cc1)c1csc(Nc2ncccc2Cl)n1` is 186 to 187 °C

----------
assay_metric: melting point

The reported melting point of the compound FC(F)(F)c1ccc2[nH]c(-c3csc(Nc4ncccc4Cl)n3)nc2c1 [Example 6] was 207 to 208 °C

So for FC(F)(F)c1ccc2nc(-c3coc(Cc4c(Cl)cccc4Cl)n3)[nH]c2c1 [Example 21] , the logged melting point turned out to be 201 to 202 °C

What the record says about FC(F)(F)c1ccc2nc(-c3c[nH]c(Cc4c(Cl)cccc4Cl)n3)[nH]c2c1 [Example 20] : melting point is 281 to 282 °C

Recorded result, Cc1ccccc1Cc1nc(C(=O)Nc2ccc(Br)cc2)cs1 [Example 37] , melting point: 121.9 to 123.4 °C

Lookup result for O=C(Nc1ccc(C(F)(F)F)cc1)c1cnc(Cc2c(Cl)cccc2Cl)[nH]1 [Example 11] ; measured melting point: 253 to 255 °C

Quick note, melting point for O=C(Nc1ccc(C(F)(F)F)cc1)c1nc(Nc2c(Cl)cccc2Cl)sc1Br [Example 14] landed at 151 to 162 °C

Notebook: O=C(Nc1ccc(Br)cc1)c1csc(Cc2ccccc2F)n1 [Example 32] , melting point read as 100.8 to 101 °C

----------
assay_metric: melting point

Please fill in: melting point reported for `O=C(Nc1ccc(Br)cc1)c1csc(Nc2cccnc2Cl)n1` = 214.7 to 216.2 °C

response.value for `O=C(Nc1ccc(Br)cc1)c1csc(Cc2ccccc2Cl)n1` (field: melting point) = 109.4 to 110.6 °C

`CC(C)c1ccc(NC(=O)c2csc(Cc3ccccc3Cl)n2)cc1` yielded melting point of 85.4 to 92.7 °C

// sample `CC(=O)c1ccc(NC(=O)c2csc(Cc3c(Cl)cccc3Cl)n2)cc1` , its melting point was 98.8 to 106.9 °C

Entry under test: `CC(C)c1ccc(NC(=O)c2csc(Nc3ccccc3C(F)(F)F)n2)cc1` . Its melting point was 96 to 100 °C

GET /value?item= `COc1ccc(NC(=O)c2csc(Cc3c(Cl)cccc3Cl)n2)cn1` &field=melting point returns 137.7 to 138.8 °C

melting point recorded for this compound, `CN(C)c1ccc(NC(=O)c2csc(Cc3c(Cl)cccc3Cl)n2)cc1` , is 172 to 174 °C

Record summary for `O=C(Nc1ccc(C(F)(F)F)cc1)c1csc(Nc2c(Cl)cncc2Cl)n1` : reported melting point = 195 to 197 °C

Lab note: measured melting point of `COc1ccccc1Cc1nc(C(=O)Nc2ccc(C(F)(F)F)cc2)cs1` was 107.2 to 108.2 °C

// melting point value for `Cc1cccc(C)c1Nc1nc(C(=O)Nc2ccc(C(C)C)cc2)cs1` : 128 to 133 °C

melting point recorded for this compound, `FC(F)(F)c1ccc2nc(-c3csc(Cc4c(Cl)cccc4Cl)n3)[nH]c2c1` , is 187 to 189 °C

The measured melting point associated with `O=C(Nc1ccc(Br)cc1)c1csc(Nc2ncccc2Cl)n1` reads 226 to 258 °C

Reported melting point ( `O=C(Nc1ccc(Br)cc1)c1csc(Nc2ccccc2F)n1` ) = 198.4 to 199.7 °C

Entry `O=C(Nc1ccc(F)c(F)c1)c1csc(Cc2c(Cl)cccc2Cl)n1` ; melting point = 113 to 116 °C

// melting point value for `O=C(Nc1ccc(Br)cc1)c1csc(Cc2c(Cl)cccc2Cl)n1` : 126.6 to 132 °C

melting point recorded for this compound, `Cc1cccc(C)c1Nc1nc(-c2nc3cc(C(F)(F)F)ccc3[nH]2)cs1` , is 250 to 251 °C

GET /value?item= `O=C(Nc1ccc(Br)cc1)c1csc(Nc2c(Cl)cccc2Cl)n1` &field=melting point returns 125.9 to 126.9 °C

`Cc1nc(Cc2c(Cl)cccc2Cl)sc1C(=O)Nc1ccc(C(F)(F)F)cc1` has a reported melting point of 180 to 183 °C

According to the records, this compound `O=C(Nc1ccc(Br)cc1)c1csc(Nc2c(Cl)cccc2C(F)(F)F)n1` displays melting point of 262 to 264 °C

----------
assay_metric: melting point

Notebook: `Clc1cccc(Cl)c1Nc1nc(-c2nc3cc(Br)ccc3[nH]2)cs1` , melting point read as 267 to 268 °C

The reported melting point of the compound `Clc1cc2nc(-c3csc(Cc4c(Cl)cccc4Cl)n3)[nH]c2cc1Cl` was 245 to 247 °C

Please fill in: melting point reported for `O=C(Nc1ccc(C(O)(C(F)(F)F)C(F)(F)F)cc1)c1csc(Nc2ccccc2F)n1` = 158 to 160 °C

Record `CC(C)c1ccc(NC(=O)c2cnc(Cc3c(Cl)cccc3Cl)s2)cc1` , field melting point: 169 to 175 °C

get_value(item= `O=C(Nc1ccc(C(F)(F)F)nc1)c1csc(Cc2ccccc2F)n1` , readout=melting point) returns 104.8 to 107.7 °C

Value of measured melting point for the entry `O=C(Nc1ccc(C(F)(F)F)cc1)c1csc(Nc2c(Cl)cccc2C(F)(F)F)n1` : 243 to 244 °C

Entry under test: `FC(F)(F)c1ccc2nc(-c3csc(Nc4c(Cl)cccc4Cl)n3)[nH]c2c1` . Its melting point was 242 to 243 °C

Lab note: `O=C(Nc1ccc(C(F)(F)F)nc1)c1csc(Cc2ccccc2Cl)n1` gave melting point of 99 to 101 °C

Form field melting point, entry `O=C(Nc1ccc(C(F)(F)F)cc1)c1csc(Nc2ccccc2C(F)(F)F)n1` : 128 to 130 °C

----------
Counter-ions that a name gives are not always drawn.
Please go through the items and note down their melting point.

Reported melting point ( `CC(C)c1ccc(NC(=O)c2csc(Nc3ccccc3F)n2)cc1` ) = 136.5 to 180.1 °C

Kindly note the recorded melting point for O=C(Nc1ccc(Br)cc1)c1cnc(Cc2c(Cl)cccc2Cl)[nH]1 (as salt: hydrochloride) , which is 253 to 254 °C

Entry `Cc1ccccc1Cc1nc(C(=O)Nc2ccc(C(F)(F)F)nc2)cs1` — recorded melting point = 140.2 to 141.3 °C

The recorded melting point for entry `O=C(Nc1ccc(Br)cc1)c1csc(Cc2c(F)cccc2Cl)n1` equals 111.8 to 112.5 °C

Note to self: melting point recorded for `FC(F)(F)c1ccc2[nH]c(-c3csc(Nc4ccccc4C(F)(F)F)n3)nc2c1` was 211 to 212 °C

Entry `O=C(Nc1ccc(C(F)(F)F)cc1)c1csc(Nc2ccccc2Cl)n1` , melting point reported as 192.5 to 193.1 °C

Data point: `Cc1cccc(C)c1Nc1nc(C(=O)Nc2ccc(Br)cc2)cs1` ; melting point = 208 to 209 °C

According to the records, this molecule `O=C(Nc1ccc(Br)cc1)c1csc(Nc2ccccc2Cl)n1` displays melting point of 220.5 to 221.3 °C

The value of melting point measured for the molecule `Cc1cccc(C)c1Nc1nc(C(=O)Nc2ccc(C(F)(F)F)cc2)cs1` turned out to be 216 to 218 °C

Data point: `O=C(Nc1ccc(C(F)(F)F)cc1)c1csc(Nc2cccnc2Cl)n1` ; melting point = 232.5 to 234.3 °C

Entry `O=C(Nc1ccc(C(F)(F)F)cc1)c1cnc(Cc2c(Cl)cccc2Cl)s1` — recorded melting point = 163 to 164 °C

The value of melting point measured for the molecule `COc1ccccc1Cc1nc(C(=O)Nc2ccc(Br)cc2)cs1` turned out to be 138 to 138.4 °C

Record `FC(F)(F)c1ccc2[nH]c(-c3csc(Nc4c(Cl)cccc4C(F)(F)F)n3)nc2c1` , field melting point: 188 to 210 °C

response.value for `O=C(Nc1ccc(C(O)(C(F)(F)F)C(F)(F)F)cc1)c1csc(Cc2c(Cl)cccc2Cl)n1` (field: melting point) = 197 to 197.8 °C

The molecule listed as CC(C)c1ccc(NC(=O)c2cnc(Cc3c(Cl)cccc3Cl)[nH]2)cc1 (as salt: hydrochloride) has a reported melting point of 210 to 212 °C

melting point for `O=C(Nc1ccc(C(F)(F)F)nc1)c1csc(Cc2c(Cl)cccc2Cl)n1` is 139.1 to 147.1 °C

`O=C(Nc1ccc(C(F)(F)F)nc1)c1csc(Cc2c(F)cccc2Cl)n1` yielded melting point of 123.4 to 125.1 °C

melting point measured on `O=C(Nc1ccc(C(F)(F)F)cc1)c1csc(Cc2ccccc2Cl)n1` = 85.5 to 94 °C
